assay: protein stability index of a GFP-peptide fusion (yeast GPS) (PSI 1-4); higher = more stable; sorted into four equal gates, so the index is relative within each strain; details: pdr5∆
Quantity Name: protein stability index

1) RMLSFEDISKATHLPKD [RPN9]	3.08
2) LRAHTDDSRNPDCKIKI [PRE2]	2.92
3) SMNKELIAIVSKLLQTT [NUT1]	1.79
4) GYCDDIAAMVAQKCGWT [SIR2]	1.9
5) IALSRRFLLNGRVKALE [YDL116W/NUP84]	1.3
6) KDENNTANDQYSSILGN [YCG1]	3.2
7) RKFKSRRCDDMLYYIQN [POP4]	2.98
8) SVTEIPLKLSGEGPFTV [YMR129W/POM152]	3.23
9) NNRSVSMQTIAETIILS [SRB5]	1.91
10) EDIVGALRRRVGPSEQN [REC8]	1.58
11) EELILPNTKDAMSLYHS [PRP8]	3.38
12) MKWDFAKDIKGYGTQKI [PRE4]	1.85
13) SRQVQKRPRSRTLTAVH [RPS7A]	2.33
14) TNHVLEVFSVLGIEAAR [RPO31]	2.4
15) IERDSLVDDENEPSQSL [BRN1]	3.41
16) KLQLGQLYESGNPVNDA [COR1]	2.98
17) NNRWAENNYKKRLLGTA [RPS23A]	2.78
18) NIDSSAQFTFGKAATAK [YOR098C/NUP1]	3.07
19) DDPFMTKSGATTSEKQE [GAL11]	3.26
20) AGCKIDNVDDIGEFNVS [YDL088C/ASM4]	2.8
